Recorded Retention_time for the following molecules
experiment: Retention time of the compound in human liver microsomes by UHPLC-MS analysis; format: ADME, microsome
READOUT TYPE: Retention_time (min)

>>> numeric_result("CCN(CC)CCNC(=O)c1c(C=O)[nH]c(/C=C2\\C(=O)Nc3ccc(F)cc32)c1C")
4.36
>>> numeric_result("Cc1ccc(Nc2ncc(Cl)c(N(C)c3ccc4c(C)n(C)nc4c3)n2)cc1S(N)(=O)=O")
3.54
>>> numeric_result("Cc1ccc(Nc2nccc(N(C)c3ccc4c(C=O)n(C)nc4c3)n2)cc1S(N)(=O)=O")
2.84
>>> numeric_result("CCN(CC)CCNC(=O)c1c(CO)[nH]c(/C=C2\\C(=O)Nc3ccc(F)cc32)c1C")
4.36
>>> numeric_result("CCN(CC)CCNC(=O)c1c(/C=N/OC)[nH]c(/C=C2\\C(=O)Nc3ccc(F)cc32)c1C")
4.74

meta.source: ChEMBL document CHEMBL4145691
